Taken from patent US20220073617A1.

target: T1, monovalent hVISTA-ECD (human VISTA extracellular domain with His tail) (human, UniProt Q9H7M9 33-193); assay: SPR, pH 6.0
T1 construct: analyte flowed over captured antibody; also called huVISTA-His
T1 sequence (Q9H7M9 other isoform, or with tags, fused parts or gaps limits assumed): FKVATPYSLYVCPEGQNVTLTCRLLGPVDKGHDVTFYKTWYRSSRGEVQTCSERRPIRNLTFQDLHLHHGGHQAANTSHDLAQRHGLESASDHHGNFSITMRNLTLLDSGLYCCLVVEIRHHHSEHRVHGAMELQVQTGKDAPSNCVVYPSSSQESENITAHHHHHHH
Hi, to clarify the labels: Criterion met covers koff from 0.04 s⁻¹ upward, Criterion not met covers anything below 0.04 s⁻¹.

# binder, class
measured = [
    ("P1-064500 (41F11_Vk_Q90DA64G) (antibody, V domains shown, also called P1-064500-1) VH: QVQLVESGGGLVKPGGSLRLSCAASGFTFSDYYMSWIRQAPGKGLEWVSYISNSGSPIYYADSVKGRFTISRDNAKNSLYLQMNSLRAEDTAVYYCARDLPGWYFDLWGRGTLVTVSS VL: EIVLTQSPATLSLSPGERATLSCRASQSVSSYLAWYQQKPGQAPRLLIYDASNRATGIPARFSGSGSGTDFTLTISSLEPEDFAVYYCQDRNNWPRTFGQGTKVEIK", "Criterion met"),
    ("P1-065318 (41F11_VH_L96E VK A64G) (antibody, V domains shown, Kabat positions; also called P1-065318-1) VH: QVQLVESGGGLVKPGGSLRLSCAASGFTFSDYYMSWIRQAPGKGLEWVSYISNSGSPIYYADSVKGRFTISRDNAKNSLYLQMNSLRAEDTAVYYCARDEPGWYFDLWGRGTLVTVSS VL: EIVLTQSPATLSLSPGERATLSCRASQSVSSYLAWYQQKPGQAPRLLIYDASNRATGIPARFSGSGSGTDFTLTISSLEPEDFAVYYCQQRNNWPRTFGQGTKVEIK", "Criterion not met"),
    ("P1-064528 (41F11_VH_D31E/Y50W/S55E/L96E/Y100E) (antibody, V domains shown, Kabat positions; also called P1-064528-1) VH: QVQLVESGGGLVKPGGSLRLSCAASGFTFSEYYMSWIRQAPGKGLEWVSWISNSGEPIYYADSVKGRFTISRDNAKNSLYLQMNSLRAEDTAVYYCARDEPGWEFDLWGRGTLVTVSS VL: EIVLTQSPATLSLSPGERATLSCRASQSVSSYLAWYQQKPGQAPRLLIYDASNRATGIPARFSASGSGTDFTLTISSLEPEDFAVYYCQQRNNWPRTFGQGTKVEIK", "Criterion not met"),
    ("P1-064486 (41F11_VH_F100aG) (antibody, V domains shown, Kabat positions; also called P1-064486-1) VH: QVQLVESGGGLVKPGGSLRLSCAASGFTFSDYYMSWIRQAPGKGLEWVSYISNSGSPIYYADSVKGRFTISRDNAKNSLYLQMNSLRAEDTAVYYCARDLPGWYGDLWGRGTLVTVSS VL: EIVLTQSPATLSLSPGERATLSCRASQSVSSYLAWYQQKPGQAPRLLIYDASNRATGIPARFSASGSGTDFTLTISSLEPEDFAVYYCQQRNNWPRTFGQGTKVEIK", "Criterion met"),
    ("P1-061528 (41F11 NGS mut VK_A64G/R91A) (antibody, V domains shown, also called P1-061528-2) VH: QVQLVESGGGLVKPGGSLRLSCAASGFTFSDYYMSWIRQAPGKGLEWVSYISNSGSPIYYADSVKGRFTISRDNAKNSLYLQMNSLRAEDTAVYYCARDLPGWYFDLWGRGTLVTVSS VL: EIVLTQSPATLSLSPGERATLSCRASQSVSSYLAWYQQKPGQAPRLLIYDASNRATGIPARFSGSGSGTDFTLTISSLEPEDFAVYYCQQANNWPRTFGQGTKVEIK", "Criterion not met"),
]

Is koff for P1-064484 (41F11_VH_L96E) (antibody, V domains shown, Kabat positions; also called P1-064484-1) VH: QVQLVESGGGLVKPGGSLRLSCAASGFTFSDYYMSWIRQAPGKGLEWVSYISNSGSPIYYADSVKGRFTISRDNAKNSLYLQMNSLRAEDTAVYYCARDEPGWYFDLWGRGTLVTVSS VL: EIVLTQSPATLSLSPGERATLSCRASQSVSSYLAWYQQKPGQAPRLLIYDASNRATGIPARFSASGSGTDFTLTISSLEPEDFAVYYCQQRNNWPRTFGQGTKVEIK at or above 0.04 s⁻¹?
Criterion not met

For this binder, is measured koff 0.04 s⁻¹ or higher? P1-064526 (41F11_VH_D31E/Y50W/S55E/A60H/Y100E) (antibody, V domains shown, Kabat positions; also called P1-064526-1) VH: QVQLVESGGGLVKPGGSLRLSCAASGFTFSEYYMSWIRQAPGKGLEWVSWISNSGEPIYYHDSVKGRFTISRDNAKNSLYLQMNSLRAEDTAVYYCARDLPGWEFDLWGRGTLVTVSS VL: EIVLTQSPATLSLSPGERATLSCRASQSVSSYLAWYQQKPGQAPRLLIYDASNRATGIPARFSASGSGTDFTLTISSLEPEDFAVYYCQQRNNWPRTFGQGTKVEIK
Criterion not met

Hi team, for P1-065319 (41F11_VH_F100aG VK_A64G) (antibody, V domains shown, Kabat positions; also called P1-065319-1) VH: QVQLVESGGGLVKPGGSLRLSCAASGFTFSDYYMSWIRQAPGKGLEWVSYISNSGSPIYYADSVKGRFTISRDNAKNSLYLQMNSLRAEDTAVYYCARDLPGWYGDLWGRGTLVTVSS VL: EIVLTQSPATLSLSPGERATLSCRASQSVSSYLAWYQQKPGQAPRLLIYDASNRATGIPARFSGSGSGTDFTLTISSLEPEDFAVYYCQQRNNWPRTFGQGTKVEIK , is the recorded koff at or above 0.04 s⁻¹?
Criterion not met

Evaluate P1-065320 (41F11_VH_L96EF100aG VK_A64G) (antibody, V domains shown) VH: QVQLVESGGGLVKPGGSLRLSCAASGFTFSDYYMSWIRQAPGKGLEWVSYISNSGSPIYYADSVKGRFTISRDNAKNSLYLQMNSLRAEDTAVYYCARDEPGWYGDLWGRGTLVTVSS VL: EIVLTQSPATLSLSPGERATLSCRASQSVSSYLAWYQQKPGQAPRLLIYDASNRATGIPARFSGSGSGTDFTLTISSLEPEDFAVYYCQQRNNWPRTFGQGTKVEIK : koff at minimum 0.04 s⁻¹?
Criterion not met
